- assay-system: T1, Gcn4 101-134 (Saccharomyces cerevisiae, UniProt P03069)
- T1 chain: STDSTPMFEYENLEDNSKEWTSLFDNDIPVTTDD
- measurement-protocol: ITC
measurement-type: pKd
// pKd: -log10(molar conc.)

binder: Gal11/Med15 158-238 (protein) QRRQLTPQQQQLVNQMKVAPIPKQLLQRIPNIPPNINTWQQVTALAQQKLLTPQDAEAAKEVYKIHQQLLFKARLQQQQAQ
pKd: 4.12

Would you kindly look at the next entry?
Query: pKd lookup needed for Gal11/Med15 158-238 (protein) QRRQLTPQQQQLVNQMKVAPIPKQLLQRIPNIPPNINTWQQVTALAQQKLLTPQDMEAAKEVYKIHQQLLFKARLQQQQAQ , thanks.
Response: 5.00
